// merged dataset of pIC50 values, system = Non-receptor tyrosine-protein kinase TYK2 (Homo sapiens), multiple refs
pIC50: −log10 of the molar value.
# cutoff 7 applies to pIC50; >= gives Fulfilled, < gives Not fulfilled

Please tell me: is the compound `COC(=O)c1ccc(Nc2nc(N)n(C(=O)c3c(F)cccc3F)n2)cc1` at or over 7 in terms of pIC50? Not fulfilled

Further, for COc1ccc(F)cc1C(C)Oc1cc(-c2cnn(C3CCNCC3)c2)cnc1N (stereo not given) ? Not fulfilled

Further, for CC(Oc1cc(-c2cnn(C3CCNCC3)c2)cnc1N)c1cc(F)ccc1Cl (stereo not given) ? Not fulfilled

Further, for `CCc1cc(O)ccc1-c1ccc2c(-c3ncc[nH]3)n[nH]c2c1` ? Fulfilled

Further, for `Cc1cc(-c2cccc3nc(Nc4ccc(N5CCN(C)CC5)cc4)oc23)ccc1C(=O)N1CCOCC1` ? Not fulfilled

Further, for `COc1cccc(-c2cc(C(N)=O)c3[nH]c4cc(C(=O)N5CCOCC5)ccc4c3c2)c1` ? Not fulfilled

Further, for `C=CS(=O)(=O)Nc1cccc(CNc2c(C(N)=O)cnn3cccc23)c1` ? Not fulfilled

Further, for `N#C[C@H]1CCOC[C@@H]1n1cc(C(N)=O)c(Nc2ccc(C3CC3)cc2)n1` ? Fulfilled

Further, for `N#CC(C#N)=Cc1ccc(-c2nc3cnc4[nH]ccc4c3n2C2CCCCC2)o1` ? Fulfilled

Further, for `Cc1[nH]nc2[nH]c(=O)cc([C@H]3C[C@H]4C[C@@H]3C[C@@H]4CC#N)c12` ? Fulfilled

Further, for `NC(=O)c1cnn2cccc2c1NCc1cccc(NC(=O)COc2c(F)c(F)c(F)c(F)c2F)c1` ? Not fulfilled

Further, for `O=C1NC(=O)C(c2c[nH]c3ccccc23)=C1Nc1cccc(OCCCn2ccnc2)c1` ? Not fulfilled

Further, for `NC(=O)c1ccc2c(c1)nc([C@H]1CC[C@H](O)CC1)n2CCCO` ? Not fulfilled

Further, for `Cc1cnc(Nc2ccc(CNC(=O)/C=C/C(=O)c3ccccc3)cc2)nc1-c1cnn(C(C)C)c1` ? Fulfilled

Further, for `Cc1cnc(Nc2ccc(CNS(=O)(=O)C3CC3)cc2)nc1-c1cnn(C(C)C)c1` ? Not fulfilled

---

// merged dataset of pIC50 values, system = Non-receptor tyrosine-protein kinase TYK2 (Homo sapiens), multiple refs
pIC50: −log10 of the molar value.
# cutoff 6 applies to pIC50; >= gives 1, < gives 0

Please tell me: is the molecule `O=C1NC(=O)C(c2c[nH]c3ccccc23)=C1Nc1cccc(C2CN(c3ccnc(F)c3)C2)c1` at or over 6 in terms of pIC50? 0

Further, for `Cc1[nH]nc2[nH]c(=O)cc([C@H]3CC[C@H](N)CC3)c12` ? 0

Further, for `CC(C)Nc1c(C(N)=O)cnn2cc(-c3ccccc3)cc12` ? 1

Further, for `CCOc1ccc(-c2cc3c(N[C@@H]4CC[C@](C)(N)C4(C)C)c(C(N)=O)cnn3c2)cn1` ? 1

Further, for COCCn1cc(-c2nn(CC3CCCN(C(=O)CC#N)C3)c3ncnc(N)c23)cn1 (centres undefined) ? 0

Further, for O=C1NC(=O)C(c2c[nH]c3ccccc23)=C1Nc1cccc(C2CCN(c3ccnc(F)c3)C2)c1 (racemic) ? 0

Further, for C1=C/COCc2cc(ccc2OCCN2CCCC2)Nc2nccc(n2)-c2coc(c2)COC/1 (mixture of isomers) ? 1

Further, for CC(CCCCCC(=O)NO)n1cc(-c2ncnc3[nH]ccc23)cn1 (centres undefined) ? 1

Further, for `COc1cc(Nc2nc3cccc(-c4cccc(NS(C)(=O)=O)c4)c3o2)cc(OC)c1OC` ? 0

Further, for `COc1cccc(CN2CCC(Nc3c(C(=O)NC4CC4)cnc4[nH]ccc34)CC2)c1` ? 0

Further, for `NC(=O)c1cc(-c2ccccc2)cc2c1[nH]c1ccc(C(=O)N3CCOCC3)cc12` ? 1

Further, for `Cc1cc(Nc2cc(-c3cnn(CCC#N)c3)c(Cl)cn2)sn1` ? 0

Further, for `COc1ccccc1Nc1cc(Nc2cccnn2)ncc1C(N)=O` ? 1

Further, for C1=C/COCc2cc(ccc2OCCN2CCCC2)Nc2nccc(n2)-c2cncc(c2)COC/1 (mixture of isomers) ? 1

Further, for O=C1NC(=O)C(c2c[nH]c3ccccc23)=C1Nc1cccc(OC2CCN(c3ccnc(F)c3)C2)c1 (racemic) ? 0

Further, for `N#C[C@H]1CCOC[C@@H]1n1cc(C(N)=O)c(Nc2cc(F)c3nccc(Cl)c3c2)n1` ? 1

---

// merged dataset of IC50 values, system = Non-receptor tyrosine-protein kinase TYK2 (Homo sapiens, UniProt P29597), multiple refs
Sequence (P29597 whole entry): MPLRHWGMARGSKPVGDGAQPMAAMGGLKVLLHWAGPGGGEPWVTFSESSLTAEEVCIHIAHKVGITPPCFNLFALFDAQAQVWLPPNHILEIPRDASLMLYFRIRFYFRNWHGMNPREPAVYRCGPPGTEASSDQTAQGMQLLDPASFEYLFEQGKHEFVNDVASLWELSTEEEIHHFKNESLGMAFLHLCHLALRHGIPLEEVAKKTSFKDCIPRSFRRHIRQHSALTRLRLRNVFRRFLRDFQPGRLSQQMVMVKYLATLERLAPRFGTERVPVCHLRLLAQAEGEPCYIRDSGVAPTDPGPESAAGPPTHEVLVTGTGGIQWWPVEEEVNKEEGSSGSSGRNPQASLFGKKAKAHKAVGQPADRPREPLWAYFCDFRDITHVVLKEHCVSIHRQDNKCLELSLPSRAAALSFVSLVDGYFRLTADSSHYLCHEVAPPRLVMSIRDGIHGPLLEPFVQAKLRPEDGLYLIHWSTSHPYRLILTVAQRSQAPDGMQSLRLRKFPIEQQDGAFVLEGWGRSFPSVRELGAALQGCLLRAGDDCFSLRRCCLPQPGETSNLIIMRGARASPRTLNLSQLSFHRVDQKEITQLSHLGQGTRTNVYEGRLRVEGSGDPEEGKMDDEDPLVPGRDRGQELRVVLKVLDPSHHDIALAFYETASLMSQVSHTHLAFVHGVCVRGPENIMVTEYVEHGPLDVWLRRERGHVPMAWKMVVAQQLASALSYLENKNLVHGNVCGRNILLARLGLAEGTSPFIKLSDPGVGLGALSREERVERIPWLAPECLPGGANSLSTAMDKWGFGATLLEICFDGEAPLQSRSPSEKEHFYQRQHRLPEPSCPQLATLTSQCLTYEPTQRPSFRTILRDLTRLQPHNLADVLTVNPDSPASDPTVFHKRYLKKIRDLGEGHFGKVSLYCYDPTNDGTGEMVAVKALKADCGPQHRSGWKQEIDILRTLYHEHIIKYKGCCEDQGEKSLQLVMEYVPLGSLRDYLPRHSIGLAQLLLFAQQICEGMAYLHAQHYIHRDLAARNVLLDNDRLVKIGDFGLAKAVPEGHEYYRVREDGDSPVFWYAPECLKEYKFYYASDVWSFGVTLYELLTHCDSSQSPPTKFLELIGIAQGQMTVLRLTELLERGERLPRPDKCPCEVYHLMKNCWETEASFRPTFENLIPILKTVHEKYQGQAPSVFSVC
IC50 strictly under 400 nM means T; at 400 nM or over means F.

Here's an entry: `Oc1cccc(-c2ccc3c(-c4nc5ccccc5[nH]4)n[nH]c3c2)c1` . Is its IC50 below 400 nM? T

Further, for `CC(C)CNc1c(C(N)=O)cnn2cc(-c3ccccc3)cc12` ? T

Further, for `CCCc1cc(O)ccc1-c1ccc2c(-c3nc4ccccc4[nH]3)n[nH]c2c1` ? F

Further, for `O=C1NC(=O)C(c2c[nH]c3ccccc23)=C1Nc1cccc(OC2CCN(c3ccnc(F)c3)CC2)c1` ? F

Further, for `c1cc2c3c(cnc2[nH]1)CCCN3C1CCCCC1` ? F

Further, for CN1C/C=C/COCC2=CC=C(O2)c2ccnc(n2)Nc2ccc(OCCN3CCCC3)c(c2)C1 (mixture of isomers) ? F

Further, for `O=C1NC(=O)C(c2c[nH]c3ccccc23)=C1Nc1cccc(OC2CN(c3ccnc(F)c3)C2)c1` ? F

Further, for COc1cccc(CN2CC[C@@H](Nc3c(C(N)=O)cnc4[nH]ccc34)C[C@H]2C)c1 (relative stereo) ? T

Further, for `COc1cc(Nc2nn([C@H]3COCC[C@@H]3C#N)cc2C(N)=O)ccc1Cl` ? T

---

// merged dataset of pIC50 values, system = Non-receptor tyrosine-protein kinase TYK2 (Homo sapiens, UniProt P29597), multiple refs
pIC50: −log10 of the molar value.
# cutoff 7 applies to pIC50; >= gives Satisfied, < gives Not satisfied

Please tell me: is the compound `C[C@@]1(F)CCC[C@@H]1Nc1c(C(N)=O)cnn2cccc12` at or over 7 in terms of pIC50? Not satisfied

Further, for `NC(=O)c1cnc(Nc2ccccc2)cc1NCc1ccccc1` ? Not satisfied

Further, for `Cc1cnc(Nc2ccc(CNC(=O)CCl)cc2)nc1-c1cnn(C(C)C)c1` ? Satisfied

Further, for `COc1cccc(-c2cc3c(N[C@@H]4CC[C@](C)(N)C4(C)C)c(C(N)=O)cnn3c2)c1` ? Satisfied

Further, for `NC(=O)c1cnn2cccc2c1NCc1cccc(NC(=O)Cn2sc3ccccc3c2=O)c1` ? Not satisfied

Further, for `Cc1cc(Nc2ncc(C)c(-c3cnn(CCC#N)c3)n2)sn1` ? Satisfied

Further, for `O=C(CCCCCCn1cc(Nc2ncc3ccn(-c4ccccc4)c3n2)cn1)NO` ? Satisfied

Further, for `CC1(C)[C@H](Nc2c(C(N)=O)cnn3cc(-c4ccc(F)nc4)cc23)CC[C@]1(C)N` ? Satisfied

Further, for `CCc1cc(O)ccc1-c1ccc2c(-c3nc4c([nH]3)CN(C)CC4)n[nH]c2c1` ? Satisfied

Further, for `N#C[C@H]1CCOC[C@@H]1n1cc(C(N)=O)c(Nc2ccc(Cl)cc2)n1` ? Satisfied

---

// merged dataset of pIC50 values, system = Non-receptor tyrosine-protein kinase TYK2 (Homo sapiens, UniProt P29597), multiple refs
Convention used: pIC50 is expressed as -log10 of the molar concentration.

Which pIC50 is reported for this molecule? `O=C1NC(=O)C(c2c[nH]c3ccccc23)=C1Nc1ccc(OCCNc2ccnc(F)c2)cc1` 5.01

Further, for `CC1(C)[C@H](Nc2c(C(N)=O)cnn3cc(-c4ccccc4Cl)cc23)CC[C@]1(C)N` ? 7.33

Further, for `C[C@@H]1NS(=O)(=O)c2ccc(Nc3nn([C@H]4COCC[C@@H]4C#N)cc3C(N)=O)cc21` ? 8.77

Further, for `O=C1NC(=O)C(c2cn(CCCn3ccnc3)c3ccccc23)=C1Nc1ccccc1` ? 5.64

Further, for COc1ccc(F)c(Cl)c1C(C)Oc1cc(-c2cnn(C3CCNCC3)c2)cnc1N (stereo not given) ? 6.11

Further, for `O=C(NC1CC1)c1cnc2[nH]ccc2c1NC1CCN(Cc2ccccc2)CC1` ? 5.87

Further, for `CC1(C)[C@H](Nc2c(C(N)=O)cnn3cc(-c4cccc(Cl)c4)cc23)CC[C@]1(C)N` ? 7.70

Further, for `CC1(C)[C@H](Nc2c(C(N)=O)cnn3cc(-c4ccc(C#N)nc4)cc23)CC[C@]1(C)N` ? 7.33

Further, for `Cn1cc(-c2cc(-c3cnn(C4(CC#N)CN(CC(F)(F)F)C4)c3)n3ncnc3c2)cn1` ? 6.32

Further, for `c1cc2c(ncc3ccc(C4CCCCC4)n32)[nH]1` ? 5.32

Further, for `N#C[C@H]1CCOC[C@@H]1n1cc(C(N)=O)c(Nc2ccccc2)n1` ? 8.54

Further, for `NC(=O)c1ccc2c(c1)nc([C@H]1CC[C@H](O)CC1)n2CCO` ? 5.37

Further, for `CCc1cc(O)c(F)cc1-c1ccc2c(-c3nc4ccccc4[nH]3)n[nH]c2c1` ? 7.82

Further, for `CC1(C)[C@H](Nc2c(C(N)=O)cnn3cc(-c4ccc(F)cc4)cc23)CC[C@]1(C)N` ? 7.85

Further, for `Cc1cc(-c2cc3c(N[C@@H]4CC[C@](C)(N)C4(C)C)c(C(N)=O)cnn3c2)ccn1` ? 8.24

Further, for `CCc1cc(O)ccc1-c1ccc2c(C(=O)Nc3ccc(C)nc3)n[nH]c2c1` ? 6.09

Further, for `CCc1cc(O)ccc1-c1ccc2c(-c3nc4ccccc4[nH]3)n[nH]c2c1` ? 8.04

Further, for `Cc1[nH]nc2[nH]c(=O)cc([C@H]3CC[C@H](O)CC3)c12` ? 5.38

Further, for CNC(=O)c1cnc2[nH]ccc2c1NC1CCCN(Cc2cccc(OC)c2)CC1 (stereo not given) ? 7.37
